Taken from paper PMC6792352.

system: GH3-TRE-Luc cell line; conditions: read-out: AC50 (uM) modified / 1000; Tox21_110001=Tox21_300300; viability, 1 nM T3 present, 24 h
property: CC50

Task item: Recorded CC50 of `Cc1cc(N=Nc2ccccc2C)ccc1N` , please.
Reply: 40.4 µM

====

assay: in vitro; settings: rat, gh3-tre-luc cells, AC50 (uM) modified / 1000
property: CC50 at 24 h

Consider the following illustrative entries.
CC/C(=N\OC/C=C/Cl)C1=C(O)CC(C2CCOCC2)CC1=O (stereo not drawn)
> 90 µM
COc1ccc(/C=N/NC(=O)c2ccncc2)cc1OC [Verazide]
> 50 µM

Task item: Can you look up the measured CC50 at 24 h of `Cc1occc(=O)c1O` for me?
Reply: > 90 µM

Task item: Can you handle `CCCCC=O` next?
Reply: > 90 µM

Task item: Also `COc1cc(C)c(Cc2cnc(N)nc2N)cc1OC` , if possible.
Reply: > 50 µM
